- Test method notes: IRF3 reporter activation in THP-1 macrophages, cell-based, PMA-stimulated THP-1, luminescence (AID 1053176)
- Conditions used: PMA-differentiated THP-1, IRF3 reporter luminescence; stronger effect = higher value
Exercise: state measured fraction signal for each of the molecules provided.
Number only, please.

Looking for the measured fraction signal of CS(=O)(=O)CCNCc1cc(-c2cc3c(Nc4ccc(OCc5cccc(F)c5)c(Cl)c4)ncnc3s2)cs1 , can you help?
-0.0035

Looking for the measured fraction signal of COc1cc(C)c(NC(=O)CN(C)C)cc1Nc1nc(Nc2cccc(F)c2C(N)=O)c2cc[nH]c2n1 , can you help?
-0.0105

Looking for the measured fraction signal of COc1cc2ncn(-c3cc(OCc4ccccc4S(C)(=O)=O)c(C#N)s3)c2cc1OC , can you help?
0.0015

Looking for the measured fraction signal of CN1CCC(C(=O)NC2NNC3NNC(c4ccccc4)CC32)CC1 (configuration not stated) , can you help?
-0.0035

Looking for the measured fraction signal of Cn1cc(C2=C(c3cn(C)c4c(N)cccc34)C(=O)NC2=O)c2ccccc21 , can you help?
-0.003

Looking for the measured fraction signal of COc1cccc(-n2ncc3c(N/N=C/c4ccc(C(=O)NCCN(C)C)cc4)ncnc32)c1 , can you help?
-0.0045

Looking for the measured fraction signal of O=C1NC(=NCCc2ccc(Cl)cc2)SC1=Cc1ccc2ncccc2c1 , can you help?
-0.0075

Looking for the measured fraction signal of Cn1c(-c2ccncc2)c(-c2ccc(F)cc2)c2ncccc21 , can you help?
-0.0005

Looking for the measured fraction signal of CNCC#Cc1c(F)ccc2c1C(=Cc1[nH]ccc1OC)C(=O)N2 , can you help?
-0.0115

Looking for the measured fraction signal of NS(=O)(=O)c1cccc(NC2CC(c3ccc(F)cc3)NN2)c1 (configuration not stated) , can you help?
-0.0055

Looking for the measured fraction signal of Cc1ccccc1-n1ncc(C(=O)c2ccccc2)c1N , can you help?
-0.0005

Looking for the measured fraction signal of Cn1cc(C2=C(c3cn(C)c4ccc(N)cc34)C(=O)NC2=O)c2ccccc21 , can you help?
-0.0115

* * *

- Test method notes: modulators of glucocorticoid suppression of NF-kB, cell-based, luciferase, IL-1B stimulus, dexamethasone (AID 624486)
- Conditions used: NF-kB luciferase reporter, IL-1B + dexamethasone, luminescence; measured here: IL-1B alone, no Dex
# note: boundary value -0.2 maps to False; z-score below it maps to True

z-score under -0.2? Item: Cn1c(=O)c(Oc2ccc(F)cc2F)cc2cnc(NCC(C)(C)O)nc21
False

z-score under -0.2? Item: Cn1cc(C2=C(c3c4n(c5ccccc35)CC(CN)C4)C(=O)NC2=O)c2ccccc21 (stereo unspecified)
True

z-score under -0.2? Item: COC(=O)Nc1nc2ccc(Oc3ccc(NC(=O)Nc4cccc(Cl)c4)cc3)cc2[nH]1
False

z-score under -0.2? Item: CCS(=O)(=O)c1ccc(OC)c(Nc2ncc(-c3ccccc3Cl)o2)c1
True

z-score under -0.2? Item: CCCN(CCS(C)(=O)=O)Cc1ccc(-c2ccc3ncnc(Nc4ccc(OCc5cccc(F)c5)c(Cl)c4)c3c2)o1
True

z-score under -0.2? Item: CS(=O)(=O)N1CCC(n2c(=O)c(Oc3ccc(F)cc3F)cc3cnc(NC4CCOCC4)nc32)CC1
True

z-score under -0.2? Item: Cn1cc(C2=C(c3ccc4ccccc4c3)C(=O)NC2=O)c2ccccc21
False

z-score under -0.2? Item: O=C1Nc2ccc(F)cc2C1=Cc1ccc[nH]1
False

z-score under -0.2? Item: CCn1c(-c2nonc2N)nc2c(C#CC(C)(C)O)ncc(OC3CCNCC3)c21
True

z-score under -0.2? Item: COc1cc2c(cc1Nc1nc(N3CCc4ccccc43)c3cc[nH]c3n1)N(C(=O)CN(C)C)CC2
False

z-score under -0.2? Item: Cn1cc(C2=C(NN3CCOCC3)C(=O)NC2=O)c2ccccc21
False

* * *

- Test method notes: HCT116 colon cancer cell growth inhibition, primary screen, CellTiter-Glo luminescence, NPC library (AID 1117342)
- Conditions used: at 20 µM (top of the series)
Recorded endpoint: inhibition of viability (%)
Reply with just the number (in %).

Looking for the measured inhibition of viability of COc1cccc2c1C(=O)c1c(O)c3c(c(O)c1C2=O)C[C@@](O)(C(=O)CO)C[C@@H]3O[C@H]1C[C@H](N)[C@H](O[C@@H]2CCCCO2)[C@H](C)O1 , can you help?
66.5

Looking for the measured inhibition of viability of CC(C)(C)C(=O)OCOC(=O)C1N2C(=O)CC2S(=O)(=O)C1(C)C (configuration not stated) , can you help?
-4.1

Looking for the measured inhibition of viability of CCC(C(=O)NC(=O)NC(C)=O)c1ccccc1 (configuration not stated) , can you help?
46.2

Looking for the measured inhibition of viability of CC(C)CCC[C@@H](C)[C@H]1CC[C@H]2[C@@H]3CC=C4C[C@@H](O)CC[C@]4(C)[C@@H]3CC[C@]12C , can you help?
43.2

Looking for the measured inhibition of viability of Nc1c(I)cc(I)c(C(=O)N(CCC(=O)O)c2ccccc2)c1I , can you help?
-9.4

Looking for the measured inhibition of viability of COC(=O)CCC[N+](C)(C)C , can you help?
4.6

Looking for the measured inhibition of viability of Cc1cc(N)c2cc(NC(=O)Nc3ccc4nc(C)cc(N)c4c3)ccc2n1 , can you help?
64

Looking for the measured inhibition of viability of CC(C)C(=O)Nc1cccc(C2CN3CCSC3=N2)c1 (configuration not stated) , can you help?
4.17

Looking for the measured inhibition of viability of O=C(O)c1ccccc1Nc1cc(Cl)ccc1C(=O)O , can you help?
-1.2

Looking for the measured inhibition of viability of CCCCNC(=O)NS(=O)(=O)c1ccc(C)cc1 , can you help?
-6.5

Looking for the measured inhibition of viability of COc1ccnc2c1CCCCC2S(=O)c1nc2ccccc2[nH]1 (configuration not stated) , can you help?
27.5

Looking for the measured inhibition of viability of NS(=O)(=O)c1cc2c(cc1Cl)NC=NS2(=O)=O , can you help?
-1.55

* * *

Exercise: state measured fraction signal for each of the compounds provided.
- Test method notes: IRF3 reporter activation in THP-1 macrophages, cell-based, PMA-stimulated THP-1, luminescence (AID 1053176)
- Conditions used: PMA-differentiated THP-1, IRF3 reporter luminescence; stronger effect = higher value
Number only, please.

Looking for the measured fraction signal of Cc1cc(O)cc(C)c1/C=C/c1cncc(C(N)=O)c1 , can you help?
-0.001

Looking for the measured fraction signal of CNC(=O)c1cncc(/C=C/c2ccccc2Cl)c1 , can you help?
0.0005

Looking for the measured fraction signal of Fc1ccc(-c2c(-c3ccncc3)[nH]c3cccnc23)cc1 , can you help?
-0.0095

Looking for the measured fraction signal of Nc1c(C(=O)c2cccc(-c3ccc[n+]([O-])c3)c2)cnn1-c1ccc(F)cc1F , can you help?
-0.0155

Looking for the measured fraction signal of COc1cc2ncn(-c3cc(OCc4ccccc4C(F)(F)F)c(C(N)=O)s3)c2cc1OC , can you help?
0.0355

Looking for the measured fraction signal of Cn1cc(C2=C(c3cn(CCCN)c4ccccc34)C(=O)NC2=O)c2ccccc21 , can you help?
-0.0135

Looking for the measured fraction signal of COC(=O)c1sc(-n2cnc3cc(OC)c(OC)cc32)cc1OCc1ccccc1C(F)(F)F , can you help?
-0.003

Looking for the measured fraction signal of CN(C)CCOc1ccc(-c2cc(-c3ccc4c(c3)CC/C4=N/O)c(-c3ccncc3)o2)cc1 , can you help?
0.045

Looking for the measured fraction signal of Cc1ccc(NC(=O)CC2CC2)cc1-c1ccc(C(=O)NCC2CC2)cc1 , can you help?
-0.006

Looking for the measured fraction signal of NCc1ccc(-c2nc(-c3ccc(Cl)c(O)c3)c(-c3ccncc3)[nH]2)cc1 , can you help?
0.0015

Looking for the measured fraction signal of CS(=O)(=O)Nc1ccc(N=Cc2c(O)[nH]c3ccccc23)cc1 , can you help?
-0.0045

Looking for the measured fraction signal of Nc1nc(-c2ccccn2)c(-c2ccc3ncccc3n2)s1 , can you help?
-0.01

Looking for the measured fraction signal of O=C1C(c2c[nH]c3ccccc23)=C(c2c[nH]c3ccccc23)C(=O)N1O , can you help?
0.0015

Looking for the measured fraction signal of Cc1ccc2c(-c3ccnc(Nc4ccccc4)n3)c(-c3ccc(F)cc3)nn2n1 , can you help?
-0.0025

Looking for the measured fraction signal of CCCNc1cccc(-n2ncc3c(N/N=C/c4ccncc4)ncnc32)c1 , can you help?
-0.005

Looking for the measured fraction signal of CCc1c(C)nc2sc3c(N)ncnc3c2c1C , can you help?
-0.001

Looking for the measured fraction signal of CC(=O)NC(Cc1ccc(OP(=O)(O)O)cc1)C(=O)NC1CCC(=O)N2CCCC(C(=O)NCc3ccc(O)cc3)N2C1=O (configuration not stated) , can you help?
-0.007

Looking for the measured fraction signal of Nc1c(C(=O)c2cccc(-c3ccncc3)c2)cnn1-c1ccc(F)cc1F , can you help?
-0.009

Looking for the measured fraction signal of NS(=O)(=O)c1ccc(-c2ccc3c(NC(=O)C4CC4)n[nH]c3c2)cc1 , can you help?
-0.0105

Looking for the measured fraction signal of O=C(Nc1n[nH]c2nc(-c3ccco3)ccc12)C1CC1 , can you help?
-0.008

Looking for the measured fraction signal of CC(C)(CO)CNC(=O)c1ccc2[nH]c(O)c(N=Nc3ccc(S(N)(=O)=O)cc3)c2c1 , can you help?
-0.004

Looking for the measured fraction signal of COc1cc[nH]c1C=C1C(=O)Nc2ccc([N+](=O)[O-])c(N3CCC(O)C3)c21 (configuration not stated) , can you help?
-0.018

Looking for the measured fraction signal of NS(=O)(=O)c1ccc(N=Nc2c(O)[nH]c3ccc(C(=O)NCCc4cnc[nH]4)cc23)cc1 , can you help?
-0.0145

Looking for the measured fraction signal of Fc1cccc(COc2ccc(Nc3ncnc4cc(-c5ccc[nH]5)sc34)cc2Cl)c1 , can you help?
-0.0045

Looking for the measured fraction signal of O=C(O)c1ccc(Oc2nccc(-c3c(-c4ccc(F)cc4)ncn3C3CCNCC3)n2)cc1 , can you help?
0.0015

Looking for the measured fraction signal of CCNC(=O)C1CCCN2C(=O)CCC(NC(=O)C(Cc3ccc(OP(=O)(O)O)cc3)NC(C)=O)C(=O)N12 (configuration not stated) , can you help?
-0.0005

Looking for the measured fraction signal of NC(=O)c1sc(-n2cnc3ccc(C(F)(F)F)cc32)cc1OCc1ccccc1Br , can you help?
0.007

All values here come from PubChem BioAssay.
